Target: Neu5Ac(a2-6)Gal(b1-4)GlcNAc(b1-3)Gal(b1-4)GlcNAc
Assay: glycan array binding signal (z-score within array); higher = stronger binding
Conditions: glycan notation: IUPAC condensed, linker removed
Many of the other results were omitted from the sample, so the strongest signals are more common in it than they were.
Observed property: glycan array binding signal (z-score)
Answers are plain numbers.

Entry DC-Sign-R (Homo sapiens), Q9H2X3 (protein) MSDSKEPRVQQLGLLEEDPTTSGIRLFPRDFQFQQIHGHKSSTGCLGHGALVLQLLSFMLLAGVLVAILVQVSKVPSSLSQEQSEQDAIYQNLTQLKAAVGELSEKSKLQEIYQELTQLKAAVGELPEKSKLQEIYQELTRLKAAVGELPEKSKLQEIYQELTRLKAAVGELPEKSKLQEIYQELTRLKAAVGELPEKSKLQEIYQELTELKAAVGELPEKSKLQEIYQELTQLKAAVGELPDQSKQQQIYQELTDLKTAFERLCRHCPKDWTFFQGNCYFMSNSQRNWHDSVTACQEVRAQLVVIKTAEEQNFLQLQTSRSNRFSWMGLSDLNQEGTWQWVDGSPLSPSFQRYWNSGEPNNSGNEDCAEFSGSGWNDNRCDVDNYWICKKPAACFRDE , glycan array binding signal (z-score) reported as -0.464
